# Test system: HL-60(TB) leukemia
# TEST_DESCRIPTION: NCI-60 one-dose screen, 48 h
# RUN_PARAMETERS: 10 µM unless noted
The panel holds about 83,000 compounds, 20% with a hit somewhere; the sample as a whole holds those more often. Activity calls are given as the source filed them. The calls were made as follows: active = growth percent below 10; inactive = the rest.
Outcome codes: active, inactive

>>> class("CCN1CCN(CCCN(C[C@H]2Cc3ccccc3CN2)[C@H]2CCCc3cccnc32)CC1")
"inactive"
>>> class("CN(Cc1ccccc1)c1nc(Cl)c(C2CC(c3ccc(F)cc3)=NN2C=O)s1 (stereo not drawn)")
"inactive"
>>> class("COc1cc2c(cc1OC)-c1cc(OC)c(OC)cc1C(CN(C)C)C2 (stereo not drawn)")
"inactive"
>>> class("CNC(=O)NCC1OC(n2cnc3c(NC(=O)Nc4ccccc4)ncnc32)C2OC(=O)CC12 (stereo not drawn)")
"inactive"
>>> class("O=C(Nc1ccc(Oc2ccc(NC(=O)Nc3ccccc3Cl)cc2)cc1)Nc1ccccc1Cl")
"inactive"
>>> class("Cc1csc(N/N=C/c2ccncc2)n1")
"inactive"
>>> class("C#CC#CC#CC#CC#CC#CC#CC#CCC1OCC(COC(=O)O[C@@H](C(=O)O[C@H]2C[C@@]3(O)[C@@H](OC(=O)c4ccccc4)[C@@H]4[C@]5(OC(C)=O)CO[C@@H]5C[C@H](O)[C@@]4(C)C(=O)[C@H](OC(C)=O)C(=C2C)C3(C)C)[C@@H](NC(=O)c2ccccc2)c2ccccc2)O1 (stereo partly drawn)")
"active"
>>> class("COc1ccc(/C=C/c2nc3ccccc3c(=O)n2-c2ccc(C#Cc3ccc(C(C)(C)C)cc3)cc2C)c(OC)c1")
"inactive"
>>> class("O=C1OCC2=C1C(c1cccc(C(F)(F)F)c1)c1cc3c(cc1N2CCO)OCCO3 (stereo not drawn)")
"active"
>>> class("N#Cc1cccc(-c2nc3ccccn3c2NCCN2CCOCC2)c1")
"inactive"
>>> class("C=CCc1cc(OC)c(OC)c(OC)c1")
"inactive"
>>> class("COc1ccc(/C=C2\\C=C(c3ccccc3)N(CCc3ccccc3)C2=O)cc1OC")
"inactive"
>>> class("c1ccc2sc(SSN3CC4CCC(CC4)C3)nc2c1")
"inactive"

* * *

# System: HL-60(TB) leukemia
# TEST_DESCRIPTION: NCI-60 one-dose screen, 48 h (100 = growth as untreated, 0 = no growth, -100 = all killed)
# RUN_PARAMETERS: 10 µM unless noted
# Procedure: Growth inhibition of the HL-60(TB) human tumor cell line is measured as a screen for anti-cancer activity. Cells are grown in 96 well plates and exposed to the test compound for 48 hours. Compounds are tested at a single concentration, which is 10^-5 M for most compounds. The reported endpoint is percent growth (GI% or GIPRCNT), where numbers from 0 - 100% represent growth inhibition, and numbers from -100% - 0 represent cell death. For example, a value of 40 represents 60% growth inhibition. […]
About 83,000 compounds went through this panel and 20% of them were active in at least one assay; those are over-represented in the sample as a whole.
Classify as follows. Reported growth greater than or equal to 80%: label 1. Reported growth below: label 0.

>>> class("Cc1ccc(C(=O)Nc2ccc(CN3CCN(C)CC3)c(C(F)(F)F)c2)cc1C#Cc1cnc(N)c2ccc(C#N)cc12")
"label 0"
>>> class("Clc1ccc(/C=N\\N=C\\c2ccc(Cl)c(Cl)c2)cc1Cl")
"label 1"
>>> class("CC(=O)c1sc2c(c1OC(=O)c1ccc(Cl)cc1Cl)c(=O)n(-c1ccccc1)c(=S)n2-c1ccccc1")
"label 0"
>>> class("Cc1[nH]c2ccccc2c1C1=CC(=O)C=CC1=O")
"label 0"
>>> class("Cc1nn(-c2ccc([N+](=O)[O-])cc2)c2ncnc(N/N=C/c3ccccc3O)c12")
"label 0"
>>> class("CN(C)CCOc1ccc(-c2nc3sccn3c2-c2ccnc(S(C)(=O)=O)n2)cc1")
"label 1"
>>> class("CCCCNP1(NCCCC)=NP(NCCCC)(NCCCC)=NP(NCCCC)(NCCCC)=NP(NCCCC)(NCCCC)=N1")
"label 0"
>>> class("O=C(Nc1ccc(-c2nc3ccc(NC(=O)c4ccc(Cl)cc4)cc3[nH]2)cc1)c1ccc(Cl)cc1")
"label 0"
>>> class("CC1=C2[C@@H](CC1)[C@]1(C)O[C@@](C3CCNCC3)(C[C@H]1OC(=O)CO)[C@H]2OC(=O)/C=C/c1ccccc1")
"label 1"
>>> class("COc1ccc(C(=O)c2ccc(C)cc2)c(OC)c1OC")
"label 1"
>>> class("Cc1nc(Nc2ccc(S(=O)(=O)Nc3cc(C)on3)cc2)c2ccccc2n1")
"label 1"
>>> class("COc1ccc(/C=C2\\Cc3c(Br)cccc3C2=O)c(OC)c1")
"label 1"
>>> class("COc1ccc(C(=O)c2cc(OC)c(OC)c(OC)c2)cc1/C=C/C(=O)c1ccc(O)cc1")
"label 0"
